# targetOrSystem: AR-LBD::TIF2-Box III-LXXLL-Peptide (Homo sapiens)
# Construct: The pET28a-AR-LBD (622–919) construct [78] was a gift
# Sequence (P10275 622-919): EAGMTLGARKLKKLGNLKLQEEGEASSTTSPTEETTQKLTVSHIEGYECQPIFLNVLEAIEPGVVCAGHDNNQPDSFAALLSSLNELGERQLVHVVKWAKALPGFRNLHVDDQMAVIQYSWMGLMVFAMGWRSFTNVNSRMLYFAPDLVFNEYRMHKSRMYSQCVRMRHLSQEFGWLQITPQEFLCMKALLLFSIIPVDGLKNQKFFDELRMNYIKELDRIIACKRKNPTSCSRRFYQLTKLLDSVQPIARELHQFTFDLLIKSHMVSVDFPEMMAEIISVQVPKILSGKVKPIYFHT
# experiment: AR-LBD::TIF2-Box III-LXXLL-peptide AlphaScreen binding assay
# measurementContext: DHT-induced TIF2 box 3 LXXLL-peptide binding to recombinant AR-LBD
// classify: if (IC50 < 30 µM) label 1 else label 0

| compoundSmiles | targetOrSystem | class |
| --- | --- | --- |
| Cc1ccccc1-c1cc(O)c2c(c1)CN(c1nccs1)CCO2 | AR-LBD::TIF2-Box III-LXXLL-Peptide (Homo sapiens) | label 0 |
| Cc1c(-c2ccc(F)cc2)[nH]c2ccc(CNC(=O)c3ccc(CO)o3)cc12 | AR-LBD::TIF2-Box III-LXXLL-Peptide (Homo sapiens) | label 1 |
| CC(=O)NCCC(=O)NCc1ccc2[nH]c(-c3ccccc3F)c(C)c2c1 | AR-LBD::TIF2-Box III-LXXLL-Peptide (Homo sapiens) | label 0 |
| Cc1ccccc1-c1cc(O)c2c(c1)CN(c1nc(C(N)=O)cs1)CCO2 | AR-LBD::TIF2-Box III-LXXLL-Peptide (Homo sapiens) | label 1 |
| Cc1nsc(NC(=O)N2CCC(Sc3ccccc3C)CC2)n1 | AR-LBD::TIF2-Box III-LXXLL-Peptide (Homo sapiens) | label 0 |
| Cc1c(-c2ccccc2F)[nH]c2ccc(CNC(=O)CCc3cn[nH]c3)cc12 | AR-LBD::TIF2-Box III-LXXLL-Peptide (Homo sapiens) | label 0 |
| Cc1c(-c2ccccc2F)[nH]c2ccc(CNC(=O)c3ccc(CO)o3)cc12 | AR-LBD::TIF2-Box III-LXXLL-Peptide (Homo sapiens) | label 1 |
